- experimental target: human TLR7 (Homo sapiens, UniProt Q9NYK1)
- Construct: host or cells: HEK293 (HEK-Blue hTLR7)
- Sequence (Q9NYK1 27-1049): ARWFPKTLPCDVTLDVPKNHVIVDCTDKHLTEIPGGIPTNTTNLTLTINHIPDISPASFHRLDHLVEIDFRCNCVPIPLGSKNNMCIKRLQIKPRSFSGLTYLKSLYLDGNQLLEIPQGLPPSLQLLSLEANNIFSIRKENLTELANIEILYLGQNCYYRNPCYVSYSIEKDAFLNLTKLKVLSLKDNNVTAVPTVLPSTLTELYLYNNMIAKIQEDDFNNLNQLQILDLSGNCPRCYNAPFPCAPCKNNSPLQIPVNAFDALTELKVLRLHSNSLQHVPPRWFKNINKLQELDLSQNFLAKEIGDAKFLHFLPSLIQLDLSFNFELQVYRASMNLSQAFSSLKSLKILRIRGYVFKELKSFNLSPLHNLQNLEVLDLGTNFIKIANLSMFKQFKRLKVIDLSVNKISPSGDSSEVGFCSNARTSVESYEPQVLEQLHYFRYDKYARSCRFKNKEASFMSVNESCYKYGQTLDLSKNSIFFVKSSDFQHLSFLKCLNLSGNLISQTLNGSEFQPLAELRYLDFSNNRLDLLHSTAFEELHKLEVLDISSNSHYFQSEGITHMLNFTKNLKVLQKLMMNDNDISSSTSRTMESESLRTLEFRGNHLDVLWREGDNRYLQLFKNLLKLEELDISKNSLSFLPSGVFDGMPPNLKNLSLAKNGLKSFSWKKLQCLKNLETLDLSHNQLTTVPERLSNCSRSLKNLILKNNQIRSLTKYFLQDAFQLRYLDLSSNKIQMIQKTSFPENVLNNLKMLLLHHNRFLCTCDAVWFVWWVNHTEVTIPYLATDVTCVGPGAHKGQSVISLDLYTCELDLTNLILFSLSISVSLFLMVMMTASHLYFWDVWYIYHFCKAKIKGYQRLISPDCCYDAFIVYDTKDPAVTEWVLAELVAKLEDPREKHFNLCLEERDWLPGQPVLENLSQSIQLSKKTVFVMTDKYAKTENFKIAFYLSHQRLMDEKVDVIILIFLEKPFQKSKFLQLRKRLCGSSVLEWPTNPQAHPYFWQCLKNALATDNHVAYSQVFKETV
- protocol description: HEK-Blue hTLR7 reporter cell assay (SEAP, NF-kB/AP-1) for stimulation of human TLR7
- Type: cell-based
- condition description: HEK-Blue hTLR7 cells, 24 h incubation, SEAP readout; read-out: TLR7_EC50
pEC50: −log10 of the molar value.
readout kind: pEC50

Please review the entries below; each comes with its answer.
INSERT INTO assay_data (molecule, obs_value) VALUES
  ('CCCCc1nc2c(N)nnc(-c3ccccc3)c2n1Cc1ccc(OC)cc1 [Compound 92]', 5.10),
  ('CCCCc1nc2c(N)nnc(N3CCCC3)c2n1Cc1ccc(CN)cc1 [Compound 134]', 6.56),
  ('CCCCc1nc2c(N)nnc(OC(C)C)c2n1CC1CCNCC1 [Compound 165]', 5.80),
  ('CCCCc1nc2c(N)nnc(-c3ccoc3)c2n1Cc1ccc(OC)cc1 [Compound 67]', 5.69),
  ('CCCCc1nc2c(N)nnc(N(C)Cc3ccc(CN)cc3)c2n1C [Compound 46]', 5.21);

a: CCCCc1nc2c(N)nnc(N3CCCC3)c2n1C[C@H]1CC[C@H](N)CC1 [Compound 143]
b: CCCCCCNCc1ccc(Cn2c(CCCC)nc3c(N)nnc(OC(C)C)c32)cc1 [Compound 109]
Q. Pick one, a or b : lowest reported pEC50. Let me know the label of the one you choose.
A. a
